Origin of values: ChEMBL document CHEMBL6153147

experiment: Metabolic stability in mouse liver microsomes assessed as intrinsic clearance preincubated for 5 mins followed by NADPH addition by LC-MS/MS analysis; assay type: ADME, Microsome; conditions: read-out: CLH
CLint scaled overview
property: CLint scaled

smiles_string=CC[C@@H]1C(=O)N(C)c2cnc(Nc3ccc(C(=O)NC4CCN(C)CC4)cc3OC)nc2N1C1CCCC1 property="CLint scaled" value_measured="136 mL/min/kg"
smiles_string=CC[C@@H]1C(=O)N(C)c2cnc(Nc3cc(N4CCN(C)CC4)cc(Cl)c3OCCCO)nc2N1C1CCCC1 property="CLint scaled" value_measured="829 mL/min/kg"

* * *

# collection of IC50 values tested on Serine/threonine-protein kinase PLK3 (Homo sapiens, UniProt Q9H4B4)
# Sequence (Q9H4B4 whole entry): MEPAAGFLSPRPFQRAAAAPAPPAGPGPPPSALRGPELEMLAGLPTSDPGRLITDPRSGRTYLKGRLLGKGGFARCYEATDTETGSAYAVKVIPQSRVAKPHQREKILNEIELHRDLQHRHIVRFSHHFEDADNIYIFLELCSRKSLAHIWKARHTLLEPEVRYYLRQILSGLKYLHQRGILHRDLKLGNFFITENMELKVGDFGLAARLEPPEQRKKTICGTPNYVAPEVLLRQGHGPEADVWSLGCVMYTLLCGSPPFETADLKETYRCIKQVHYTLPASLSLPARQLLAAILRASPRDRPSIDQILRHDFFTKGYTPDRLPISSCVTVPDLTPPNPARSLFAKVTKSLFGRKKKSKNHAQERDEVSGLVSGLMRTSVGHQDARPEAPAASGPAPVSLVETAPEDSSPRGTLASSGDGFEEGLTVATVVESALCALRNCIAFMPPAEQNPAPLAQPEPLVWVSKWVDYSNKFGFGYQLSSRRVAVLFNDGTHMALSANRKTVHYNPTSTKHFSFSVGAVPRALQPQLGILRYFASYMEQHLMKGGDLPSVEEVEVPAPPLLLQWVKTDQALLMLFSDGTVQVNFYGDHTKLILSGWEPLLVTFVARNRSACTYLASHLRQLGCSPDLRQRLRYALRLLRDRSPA
property: IC50 (µM)

smiles_string=CC[C@@H]1C(=O)N(C)c2cnc(Nc3cc(N4CCN(C)CC4)cc(Cl)c3OCCCO)nc2N1C1CCCC1 property=IC50 comparison_operator== value_measured=3.95
smiles_string=CC[C@@H]1C(=O)N(C)c2cnc(Nc3cc(N4CCNCC4)ccc3OCCO)nc2N1C(C)C property=IC50 comparison_operator=> value_measured=10
smiles_string=CC[C@@H]1C(=O)N(C)c2cnc(Nc3cc(N4CCC(N)CC4)ccc3OCCCO)nc2N1C1CCCC1 property=IC50 comparison_operator== value_measured=6.01
smiles_string=CC[C@@H]1C(=O)N(C)c2cnc(Nc3cc(N4CCN(C)CC4)cc(F)c3OC)nc2N1C(C)C property=IC50 comparison_operator== value_measured=5.16
smiles_string=CC[C@@H]1C(=O)N(C)c2cnc(Nc3cc(N4CCN(C)CC4)cc(Cl)c3OCCO)nc2N1C(C)C property=IC50 comparison_operator=> value_measured=10
smiles_string=CC[C@@H]1C(=O)N(C)c2cnc(Nc3cc(N4CCN(C)CC4)cc(F)c3OC[C@H](C)O)nc2N1C1CCCC1 property=IC50 comparison_operator== value_measured=3.67
smiles_string=CC[C@@H]1C(=O)N(C)c2cnc(Nc3cc(N4CCN(C(=O)OC(C)(C)C)CC4)ccc3OCCCO)nc2N1C1CCCC1 property=IC50 comparison_operator=> value_measured=10
smiles_string=CC[C@@H]1C(=O)N(C)c2cnc(Nc3cc(N4CCN(C)CC4)cc(F)c3OC[C@H](C)O)nc2N1C(C)C property=IC50 comparison_operator=> value_measured=10
